Data provenance is the array DNA melting data of Ke et al. (doi:10.1101/2024.01.08.574731).

Provide the recorded folding enthalpy for the entries that follow.
Assay: folding enthalpy; higher = less favourable; fluorescence melt of hairpins on a sequencing array, two-state fit
Conditions: sodium 0.088 M
Could you give me the number in kcal/mol? Just the number is fine.

For GCAGTAGGAAACCACTGC (((((.(....).))))) , write its folding enthalpy.
-29.2

For GATCCCTGTTGGGATC ((((((....)))))) , write its folding enthalpy.
-42.8

For GATCCCTGCCGGGATC ((((((....)))))) , write its folding enthalpy.
-42.8

For GATTCCCGAAAGGGGATC (((.(((....))).))) , write its folding enthalpy.
-36.3

For GCGAAAAGTCGC ((((....)))) , write its folding enthalpy.
-12.1

For GCGCGAGGAAACTCACGC (((.(((....))).))) , write its folding enthalpy.
-38.2

For GATTGGGGAAACCTGATC (((..((....))..))) , write its folding enthalpy.
-18.6

For GCCAACGGAAACGCTGGC ((((.((....)).)))) , write its folding enthalpy.
-40

For GCTACCGAAAGGTCCAGC ((((((....)))..))) , write its folding enthalpy.
-11.4

For GCGGAACACCGC ((((....)))) , write its folding enthalpy.
-23.2

For GATCTCCGCTGAGATC ((((((....)))))) , write its folding enthalpy.
-32.5

For GCGTCCTACGC ((((...)))) , write its folding enthalpy.
-20.2

For GCGGTCAGCCGC ((((....)))) , write its folding enthalpy.
-27.7

For GAGGCCGAAAGGCGCTC ((((((....))).))) , write its folding enthalpy.
-13.8

For GGAGACGAAAGTCCATCC ((((((....)))..))) , write its folding enthalpy.
-10.1

For GTATGCGAAAGCAGGTAC ((((((....)))..))) , write its folding enthalpy.
-13.2

For GCGTCCTAACGC ((((....)))) , write its folding enthalpy.
-26.4

For GACTACGAAAGTAATGTC ((((((....)))..))) , write its folding enthalpy.
-15.7

For GCCTGGCGAAAGCACGGC (((..((....))..))) , write its folding enthalpy.
-24.3

For GATCAGTCGTCTGATC ((((((....)))))) , write its folding enthalpy.
-36.5

For GCATCGGGAAACCGATAC (.(((((....))))).) , write its folding enthalpy.
-13.7

For GGGTGCGAAAGCAGACCC ((((((....)))..))) , write its folding enthalpy.
-20.4

For GGGTTCGAAAGAATTCCC ((((((....)))..))) , write its folding enthalpy.
-20.4

For GCCCCGCGAAAGCCTGGC (((..((....))..))) , write its folding enthalpy.
-17

For GGAGGTACGAAAGTATCC (((..(((....)))))) , write its folding enthalpy.
-13

For GGGTACGAAAGTACTCCC ((((((....)))..))) , write its folding enthalpy.
-13.4

###

Test: folding enthalpy; higher = less favourable; fluorescence melt of hairpins on a sequencing array, two-state fit
Conditions: sodium 0.088 M
ENDPOINT LABEL: folding enthalpy (kcal/mol)
Could you give me the number in kcal/mol? Just the number is fine.

For GGTTTCGAAAGAATACC ((((((....))).))) , write its folding enthalpy.
-25.6

For GATCTGTACCCAGATC ((((((....)))))) , write its folding enthalpy.
-36.4

For GCACAGGGAAACCCGTGC ((((.((....)).)))) , write its folding enthalpy.
-36.8

For GGGTTAGGAAACTAACCC (((((((....))))))) , write its folding enthalpy.
-47.6

For GGCCCGCCGAAAGGCGCC (((..(((....)))))) , write its folding enthalpy.
-7.51

For GGGATCACGAAAGTGCCC (((..(((....)))))) , write its folding enthalpy.
-15.3

For GAAACGGGAAACCATTTC ((((.((....)).)))) , write its folding enthalpy.
-21.5

For GTGAGTGGAAACATTCAC ((((.((....)).)))) , write its folding enthalpy.
-33.9

For GCTCCGCGAAAGCCTAGC (((..((....))..))) , write its folding enthalpy.
-10.7

For GGTGCCGAAAGGCAGACC ((((((....)))..))) , write its folding enthalpy.
-12.1

For GCGGTAGCCCGC ((((....)))) , write its folding enthalpy.
-12.3

For GAGCTCGCGAAAGCGCTC (((..(((....)))))) , write its folding enthalpy.
-14.2

For GCGAAGCGAAAGCATAGC ((.(.((....)).).)) , write its folding enthalpy.
-15.7

For GGCACCGGAAACGGTGTC (.(((((....))))).) , write its folding enthalpy.
-24.8

For TATTCGAAAGAATA (((((....))))) , write its folding enthalpy.
-14.3

For GCCGAGCGAAAGCCTGGC (((..((....))..))) , write its folding enthalpy.
-17

For GTCGAGCGAAAGCTAGAC (((.(((....))).))) , write its folding enthalpy.
-33.5

For GCCGCGCGAAAGCCCTGC ((.(.((....)).).)) , write its folding enthalpy.
-12.1

For GCTCCGCGAAAGCTTAGC (((..((....))..))) , write its folding enthalpy.
-14.4

For GTCGCGGGAAACCGTGAC (((.(((....))).))) , write its folding enthalpy.
-35.2

For GTCCTCCCGAAAGGGGAC (((..(((....)))))) , write its folding enthalpy.
-14.3

For GGTAGCGAAAGCTCCACC ((((((....)))..))) , write its folding enthalpy.
-13.2

For GCACAGCGAAAGCCATGC (((..((....))..))) , write its folding enthalpy.
-11.9

For CGCCCGGAAACGGTCGCG ((((((....)))..))) , write its folding enthalpy.
-21.2

For GATCGGAGGCCCGATC ((((((....)))))) , write its folding enthalpy.
-34.1

###

Provide the recorded folding enthalpy for the entries that follow.
Assay: folding enthalpy; higher = less favourable; fluorescence melt of hairpins on a sequencing array, two-state fit
Conditions: sodium 0.088 M
Could you give me the number in kcal/mol? Just the number is fine.

For GTCGCCGCGAAAGCGGAC (((..(((....)))))) , write its folding enthalpy.
-6.08

For GATCATTAGGATGATC ((((((....)))))) , write its folding enthalpy.
-35.3

For GAAACGCCGAAAGGCTTC (((..(((....)))))) , write its folding enthalpy.
-7.92

For GACAGGCGAAAGCCCGTC (((.(((....))).))) , write its folding enthalpy.
-22.3

For GCGGATGCCGC ((((...)))) , write its folding enthalpy.
-10.5

For GAGGCAGGAAACTGCCCC (.(((((....))))).) , write its folding enthalpy.
-9.1

For GATCCTGGGAGGATC ((((((...)))))) , write its folding enthalpy.
-33.8

For GAATAGACGAAAGTCTTC (((..(((....)))))) , write its folding enthalpy.
-11.8

For GTGCTTGGAAACAAGTAC ((.((((....)))).)) , write its folding enthalpy.
-32.3

For GGGGTAACGAAAGTTCCC (((..(((....)))))) , write its folding enthalpy.
-23.8

For GCATGACGAAAGTCCTGC (((.(((....))).))) , write its folding enthalpy.
-34.5

For GACGCAGGAAACCGCATC ((.((.(....).)).)) , write its folding enthalpy.
-12.4

For GCACGTCGAAAGACTGC (((.(((....)))))) , write its folding enthalpy.
-27.5

For GAATAGGAAACTATTC ((((((....)))))) , write its folding enthalpy.
-31

For GATCTAGCATAGATC ((((((...)))))) , write its folding enthalpy.
-36.5

For GTGTACGGAAACGTATGC (..((((....))))..) , write its folding enthalpy.
-26.7

For GGATAGGGAAACCTGTCC (((.(((....))).))) , write its folding enthalpy.
-30.9

For GCCTAGTCGAAAGACGGC (((..(((....)))))) , write its folding enthalpy.
-21

For GTAGGAGGAAACTCTTAC (((.(((....))).))) , write its folding enthalpy.
-17.8

For GGTTACGAAAGTAGTACC ((((((....)))..))) , write its folding enthalpy.
-14.8

For GTTCTCGCGAAAGCGAAC (((..(((....)))))) , write its folding enthalpy.
-7.5

For GCCGAGCGAAAGCCCTGC ((.(.((....)).).)) , write its folding enthalpy.
-13.7

For GCTGGCTCGAAAGAGAGC (((..(((....)))))) , write its folding enthalpy.
-11.1

For GCACAGGGAAACCTGCAC (..((((....))))..) , write its folding enthalpy.
-10.3

For GATTAGCGAAAGCTGATC (((.(((....))).))) , write its folding enthalpy.
-31

For CGCTCTCGGAAACGAGCG (((..(((....)))))) , write its folding enthalpy.
-17.5

For GTGAATGAAAATTCAC ((((((....)))))) , write its folding enthalpy.
-29.8

For GGACGCGGAAACGTGTCC ((((.((....)).)))) , write its folding enthalpy.
-43.4

For GCTCTGGGAAACCAGAAC (.(((((....))))).) , write its folding enthalpy.
-16.9

For GATGCCGGAAACGGCACC (.(((((....))))).) , write its folding enthalpy.
-9.72

For GTGATCGGAAACGATCGC (.(((((....))))).) , write its folding enthalpy.
-36.4

For GTCACGCGAAAGCGCGAC (((.(((....))).))) , write its folding enthalpy.
-29.6

For CGGCCGGAAACGGCACCG ((((((....)))..))) , write its folding enthalpy.
-8.06

For GCGGTTCGCCGC ((((....)))) , write its folding enthalpy.
-23.3

For GATGGACCGAAAGGTATC (((..(((....)))))) , write its folding enthalpy.
-11.1

For GTCGACGAAAGTCCAGAC ((((((....)))..))) , write its folding enthalpy.
-16.1

For GATCTTAGCTAAGATC ((((((....)))))) , write its folding enthalpy.
-43.9

For GCTGGAGGAAACTCCAAC (.(((((....))))).) , write its folding enthalpy.
-15.6

For GGTTAGGGAAACCTAGCC ((.((((....)))).)) , write its folding enthalpy.
-27.2

For GAGGGGGGAAACCCCCCC (.(((((....))))).) , write its folding enthalpy.
-8.39

For GAAAGTGGAAACACTTTC (((((((....))))))) , write its folding enthalpy.
-36.1

For GATCGGATAGCCGATC ((((((....)))))) , write its folding enthalpy.
-29.6

For CGCACCGGAAACGGGCG (((.(((....)))))) , write its folding enthalpy.
-25.2

For GTGCCCGAAAGGGTGCAC ((((((....)))..))) , write its folding enthalpy.
-14.6

For GCATGTCGAAAGACTGC (((.(((....)))))) , write its folding enthalpy.
-35

For GAGTATGGAAACATACTC (((((((....))))))) , write its folding enthalpy.
-37.6

For GAGCATGGAAACATGCCC (.(((((....))))).) , write its folding enthalpy.
-12.8

For GATCCCGAAAGGGAAATC ((((((....)))..))) , write its folding enthalpy.
-12.1

For TCTGGGAAACCAGA (((((....))))) , write its folding enthalpy.
-15

For GGCACCGCGAAAGCGGCC (((..(((....)))))) , write its folding enthalpy.
-8.53
